# Tested on: LOX IMVI melanoma
# EXPERIMENT DESCRIPTION: NCI-60 one-dose screen, 48 h (100 = growth as untreated, 0 = no growth, -100 = all killed)
# CONDITION PARAMETERS: 10 µM unless noted
About 83,000 compounds went through this panel and 20% of them were active in at least one assay; those are over-represented in the sample as a whole.
Reported growth values are given for each entry in this list.
Numbers only here, please. The scale is %.

Answered examples (3):
O=S(=O)(Oc1ccc(Br)cc1)c1ccc(Cl)cc1 :: 95.1
Cc1ccc2c(-n3nc(C#N)c(C#N)c3N)cc(=O)[nH]c2c1 :: 81
C=CN(C(=O)N1CCN(c2cc3c(cc2F)c(=O)c(C(=O)O)cn3C2CC2)CC1)c1nc(-c2ccc(OC)cc2)cs1 :: 1.92

Proceeding to the next compound to report its growth.
Please state recorded growth (tested on LOX IMVI melanoma) of Cc1nc2sc(C(=O)Nc3cccc(Br)c3C)c(N)c2cc1C(O)c1ccccc1 (centres undefined)
16.3

====

# System: SF-539 CNS
# EXPERIMENT DESCRIPTION: NCI-60 one-dose screen, 48 h (100 = growth as untreated, 0 = no growth, -100 = all killed)
# CONDITION PARAMETERS: 10 µM unless noted
Compounds without any hit were thinned out: in the full panel of roughly 83,000, 20% have a hit. Calls of active or inactive are those of the source. Rule for the calls: active = growth percent below 10; inactive = the rest.
Reported growth values are given for each entry in this list.

O=C(Cc1ccc(/C=C/C(=O)c2ncc[nH]2)cc1)Nc1cc(C(F)(F)F)cc(C(F)(F)F)c1 :: 73.7% (inactive)
CNC(C)[C@H]1CCC2C3CC=C4C(=O)[C@@H](NC(=O)C=C(C)C)CC[C@]4(C)C3CC[C@@]21C (stereo not given in full) :: -92.5% (active)
C#CCn1cnc2cnc(Nc3cccc(NC(=O)C=C)c3)nc21 :: 72.3% [6.25 µM] (inactive)
O=C(Nc1ccc(Br)cc1)C1=NCCCCN1 :: 90.9% (inactive)
COc1ccc(/C=C/c2c(C(=O)/C=C/c3ccccc3)c(C)nc3ccccc23)cc1 :: -39.5% (active)
COc1ccc(-c2n[nH]c(=O)c3nc(NC(=S)Nc4ccc(Oc5ccccc5)cc4)sc23)cc1 :: 105% (inactive)

May I ask what growth has been recorded for COc1ccc(/C(C)=C(/c2ccc(OCCCN(C)C)cc2)c2ccc(OC(=O)c3ccccc3)cc2)cc1 ?
89.1% (inactive)

May I ask what growth has been recorded for O=C(O)[C@@H](Cc1ccc2ccccc2c1)NC(=O)n1c2ccccc2c2ccccc21 ?
1.16% (active)

May I ask what growth has been recorded for C=C1C(=O)O[C@H]2[C@H]1CC/C(COC(=O)CSCSCC(=O)OC/C1=C/CC[C@@]3(C)O[C@H]3[C@H]3OC(=O)C(=C)[C@@H]3CC1)=C\CC[C@@]1(C)O[C@@H]21 ?
3.58% (active)

May I ask what growth has been recorded for CCOC(=O)C(=Cc1ccc(-c2ccccc2)cc1)C(=O)OCC ?
21.4% (inactive)

May I ask what growth has been recorded for COc1cc(Cl)c(C)cc1NC(=O)c1cc2ccccc2cc1O ?
22.1% (inactive)

May I ask what growth has been recorded for COc1ccc(/C(C)=C(\c2ccc(Cl)cc2)c2ccc(OCCN3CCCCC3)cc2)cc1 ?
43.9% (inactive)

May I ask what growth has been recorded for CCN1C(=O)N(CC)C2C1NN=c1s/c(=C3\C(=O)N(CC(C)C)c4ccccc43)c(=O)n12 (stereo not given) ?
-23.5% (active)

May I ask what growth has been recorded for Cc1ccc(-c2csc(NC(=O)c3ccccc3CN3C(=O)c4ccccc4C3=O)n2)cc1 ?
98.4% (inactive)

src = PubChem BioAssay (NCI)
